- measured on: recombinant purified β2 integrin subunit (UniProt P05107 23-769)
- test summary: ELISA
Ends that are not written are not given here.
readout type: Kd

| binder | Kd |
| --- | --- |
| GWTVFQKRLDGSV (also: biotin label, position not given here) [peptide P1, Fgγ(190)GWTVFQKRLDGSV(202)] | > 100 µM |

// next item, Kd requested
The recorded Kd for KIIPFNRLTIG (also: biotin label, position not given here) [peptide P2-C, Fgγ(385)KIIPFNRLTIG(395)] is 0.05 µM
